B1: CDC25B (parent)
chain: KSPIAPCSLDKRVILIFHCEFSSE

Variants of: B1
Test: protein stability index of a GFP-peptide fusion (GPS, HEK-293T) (PSI 1-6); higher = more stable;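 note: lentivirally expressed fusions sorted by FACS into six bins by GFP to DsRed ratio, PSI derived from sequencing read proportions per bin multiplied by bin number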
Conditions: c terminus: a fixed tail appended
Property Label: protein stability index
One number for each entry.

# Mutation Label, Property Label, Numeric Readout
rows = [
    ("S22K", "protein stability index", 2.08),
    ("A5L", "protein stability index", 2.58),
    ("L15N", "protein stability index", 2.21),
    ("L9V", "protein stability index", 2.37),
    ("I4H", "protein stability index", 1.94),
    ("V13N", "protein stability index", 1.61),
    ("I14C", "protein stability index", 1.54),
    ("D10P", "protein stability index", 3.83),
    ("I4P", "protein stability index", 2.2),
    ("V13F", "protein stability index", 2.29),
]

Need protein stability index for each of these variants.
1. S8E
2. K1S
3. K1G

[1.45, 3.48, 3.01]
